tested on: Escherichia coli TOP10; assay: shrunken log2 fold change of peptide-encoding DNA abundance (4.5 h post-induction vs induction); higher = less antimicrobial activity (less host growth inhibition); details: time post-induction: 4.5 h; library: site-saturation at positions 5, 18, 19, 20
Please mark Fulfilled if the recorded shrunken log2 fold change is equal to or greater than -0.009, and Not fulfilled if it falls below.

>>> class_assignment("RRIRWRPPRLPRPRPRPCTAPRP")
"Fulfilled"
>>> class_assignment("RRIRSRPPRLPRPRPRPLWYPRP")
"Not fulfilled"
>>> class_assignment("RRIRLRPPRLPRPRPRPIATPRP")
"Fulfilled"
>>> class_assignment("RRIRSRPPRLPRPRPRPNVCPRP")
"Not fulfilled"
>>> class_assignment("RRIRWRPPRLPRPRPRPKVHPRP")
"Not fulfilled"
>>> class_assignment("RRIRQRPPRLPRPRPRPMIEPRP")
"Not fulfilled"
>>> class_assignment("RRIRARPPRLPRPRPRPSGKPRP")
"Not fulfilled"
>>> class_assignment("RRIRYRPPRLPRPRPRPVGIPRP")
"Fulfilled"
>>> class_assignment("RRIRRRPPRLPRPRPRPHRAPRP")
"Fulfilled"
>>> class_assignment("RRIRERPPRLPRPRPRPDPMPRP")
"Not fulfilled"

Problem: Is shrunken log2 fold change at least -0.009? Consider RRIRARPPRLPRPRPRPAVGPRP
Solution: Fulfilled

Problem: Assess whether reported shrunken log2 fold change for RRIRTRPPRLPRPRPRPNYYPRP sits at -0.009 or higher.
Solution: Not fulfilled

Problem: Please tell me: is the sequence RRIRERPPRLPRPRPRPVPSPRP at or over -0.009 in terms of shrunken log2 fold change?
Solution: Not fulfilled

Problem: Entry RRIRCRPPRLPRPRPRPYANPRP : is its shrunken log2 fold change no less than -0.009?
Solution: Not fulfilled

Problem: Is reported shrunken log2 fold change greater than or equal to -0.009 here: RRIRSRPPRLPRPRPRPNQTPRP
Solution: Fulfilled

---

test system: Escherichia coli TOP10; experiment: shrunken log2 fold change of peptide-encoding DNA abundance (4.5 h post-induction vs induction); higher = less antimicrobial activity (less host growth inhibition); conditions: time post-induction: 4.5 h; library: site-saturation at positions 5, 18, 19, 20
The label depends only on shrunken log2 fold change: true (1) if it is at least -0.05, false (0) if it is smaller.

Below, 5 sequences whose answers are already recorded.
>>> class_assignment("RRIRARPPRLPRPRPRPWVLPRP")
"false (0)"
>>> class_assignment("RRIRDRPPRLPRPRPRPCWNPRP")
"false (0)"
>>> class_assignment("RRIRPRPPRLPRPRPRPIAEPRP")
"false (0)"
>>> class_assignment("RRIRQRPPRLPRPRPRPPFKPRP")
"true (1)"
>>> class_assignment("RRIRHRPPRLPRPRPRPQHSPRP")
"false (0)"

Problem: # bool: shrunken log2 fold change of RRIRSRPPRLPRPRPRPHGLPRP >= -0.05
Solution: true (1)

Problem: Determine whether measured shrunken log2 fold change meets or exceeds -0.05 for RRIRPRPPRLPRPRPRPWSFPRP
Solution: false (0)

Problem: Could you please find out whether RRIRFRPPRLPRPRPRPFIFPRP has shrunken log2 fold change that meets -0.05 or exceeds it?
Solution: false (0)

---

tested on: Escherichia coli TOP10; assay: shrunken log2 fold change of peptide-encoding DNA abundance (4.5 h post-induction vs induction); higher = less antimicrobial activity (less host growth inhibition); details: time post-induction: 4.5 h; library: site-saturation at positions 5, 18, 19, 20
Label TRUE when shrunken log2 fold change is at or above 0.08; otherwise label FALSE.

Problem: Identify whether the reported shrunken log2 fold change of the following sequence is 0.08 or greater: RRIRERPPRLPRPRPRPYRSPRP
Solution: FALSE

Problem: shrunken log2 fold change >= 0.08 for RRIRWRPPRLPRPRPRPASRPRP ?
Solution: FALSE

Problem: Could you tell me if the measured shrunken log2 fold change of RRIRMRPPRLPRPRPRPQTSPRP reaches 0.08 or more?
Solution: TRUE

Problem: Check this sequence for shrunken log2 fold change at or above 0.08: RRIRERPPRLPRPRPRPQHWPRP
Solution: FALSE

Problem: Determine whether measured shrunken log2 fold change meets or exceeds 0.08 for RRIRGRPPRLPRPRPRPTKGPRP
Solution: TRUE

Problem: Please indicate if the recorded shrunken log2 fold change for RRIRNRPPRLPRPRPRPRGRPRP meets or exceeds 0.08.
Solution: TRUE

Problem: Does shrunken log2 fold change meet or surpass 0.08 for RRIRGRPPRLPRPRPRPEPQPRP ?
Solution: TRUE

Problem: I'd appreciate it if you could say whether RRIRTRPPRLPRPRPRPTYPPRP has shrunken log2 fold change at least equal to 0.08.
Solution: FALSE

---

tested on: Escherichia coli TOP10; assay: shrunken log2 fold change of peptide-encoding DNA abundance (4.5 h post-induction vs induction); higher = less antimicrobial activity (less host growth inhibition); conditions: time post-induction: 4.5 h; library: site-saturation at positions 5, 18, 19, 20
observable: shrunken log2 fold change
One number for each entry.

// known answers, use as guide
>>> experimental_result("RRIRERPPRLPRPRPRPHTYPRP")
-0.281
>>> experimental_result("RRIRSRPPRLPRPRPRPMTMPRP")
-0.245
>>> experimental_result("RRIRWRPPRLPRPRPRPAGVPRP")
0.66
>>> experimental_result("RRIRWRPPRLPRPRPRPTHCPRP")
0.213
>>> experimental_result("RRIRHRPPRLPRPRPRPPEQPRP")
-0.000687

Dear colleague, could you send me shrunken log2 fold change for each of the items below? Thanks.
1. RRIRRRPPRLPRPRPRPSAMPRP
2. RRIRTRPPRLPRPRPRPFCGPRP

Solution:
1. 0.378
2. -0.0697

Could you tell me shrunken log2 fold change for each of these sequences? They are listed below.
1. RRIRHRPPRLPRPRPRPWHKPRP
2. RRIRYRPPRLPRPRPRPCFDPRP
3. RRIRYRPPRLPRPRPRPAPIPRP
4. RRIRYRPPRLPRPRPRPGCRPRP
5. RRIRCRPPRLPRPRPRPAGHPRP

Solution:
-0.113
-0.808
0.226
-0.0618
0.0641

---

tested on: Escherichia coli TOP10; experiment: shrunken log2 fold change of peptide-encoding DNA abundance (4.5 h post-induction vs induction); higher = less antimicrobial activity (less host growth inhibition); settings: time post-induction: 4.5 h; library: site-saturation at positions 5, 18, 19, 20
observable: shrunken log2 fold change
Numbers only.

Example entries and their recorded answers appear below.
>>> experimental_result("RRIRERPPRLPRPRPRPPSMPRP")
-0.242
>>> experimental_result("RRIRKRPPRLPRPRPRPSNLPRP")
-0.0133
>>> experimental_result("RRIRQRPPRLPRPRPRPICEPRP")
0.0925
>>> experimental_result("RRIRNRPPRLPRPRPRPFTSPRP")
-0.0528

Note: attention shifts to another entry.
Escherichia coli TOP10 shrunken log2 fold change of RRIRCRPPRLPRPRPRPRINPRP is -0.0891

---

tested on: Escherichia coli TOP10; assay: shrunken log2 fold change of peptide-encoding DNA abundance (4.5 h post-induction vs induction); higher = less antimicrobial activity (less host growth inhibition); conditions: time post-induction: 4.5 h; library: site-saturation at positions 5, 18, 19, 20
Decide using shrunken log2 fold change: a value greater than or equal to -0.1 is Yes, a smaller one is No.

>>> class_assignment("RRIRYRPPRLPRPRPRPAVSPRP")
"Yes"

Problem: Kindly determine if shrunken log2 fold change recorded for RRIRARPPRLPRPRPRPMQNPRP is above or exactly -0.1.
Solution: Yes

Problem: Answer whether shrunken log2 fold change of RRIRVRPPRLPRPRPRPPMWPRP is greater than or equal to -0.1.
Solution: Yes

Problem: Kindly determine if shrunken log2 fold change recorded for RRIRLRPPRLPRPRPRPIGGPRP is above or exactly -0.1.
Solution: Yes

Problem: Hello, I need to know if RRIRKRPPRLPRPRPRPELHPRP has measured shrunken log2 fold change not below -0.1. Thanks!
Solution: Yes

Problem: Is it the case that RRIRQRPPRLPRPRPRPLGGPRP has shrunken log2 fold change reaching or exceeding -0.1?
Solution: No

Problem: Could you please find out whether RRIRCRPPRLPRPRPRPLTHPRP has shrunken log2 fold change that meets -0.1 or exceeds it?
Solution: No

Problem: Dear colleague, could you confirm whether RRIRDRPPRLPRPRPRPSKWPRP has shrunken log2 fold change at or above -0.1?
Solution: No

---

test system: Escherichia coli TOP10; experiment: shrunken log2 fold change of peptide-encoding DNA abundance (4.5 h post-induction vs induction); higher = less antimicrobial activity (less host growth inhibition); details: time post-induction: 4.5 h; library: site-saturation at positions 5, 18, 19, 20;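 also: peptides expressed intracellularly from a pBAD plasmid library in pooled LB shake-flask culture, induced with 0.3% L-arabinose, DNA abundance read by NGS, three biological replicates, DESeq2 with apeglm shrinkage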
Kindly return 1 (yes) if reported shrunken log2 fold change is no lower than -0.5; return 0 (no) if it is lower.

Reference set (6 entries):
>>> class_assignment("RRIRSRPPRLPRPRPRPCDLPRP")
"1 (yes)"
>>> class_assignment("RRIRPRPPRLPRPRPRPCPYPRP")
"0 (no)"
>>> class_assignment("RRIRTRPPRLPRPRPRPWFNPRP")
"1 (yes)"
>>> class_assignment("RRIRTRPPRLPRPRPRPTEWPRP")
"1 (yes)"
>>> class_assignment("RRIRYRPPRLPRPRPRPFVMPRP")
"0 (no)"
>>> class_assignment("RRIRWRPPRLPRPRPRPRTAPRP")
"1 (yes)"

Problem: Record RRIRHRPPRLPRPRPRPCPYPRP ; criterion: shrunken log2 fold change no lower than -0.5. Met?
Solution: 0 (no)

Problem: Given the entry RRIRDRPPRLPRPRPRPSQDPRP , answer whether its shrunken log2 fold change meets or surpasses -0.5.
Solution: 1 (yes)

Problem: Exam item: decide whether the reported shrunken log2 fold change for RRIRTRPPRLPRPRPRPLDVPRP is at least -0.5.
Solution: 0 (no)

Problem: Would you say RRIRWRPPRLPRPRPRPYWVPRP shows shrunken log2 fold change at minimum -0.5?
Solution: 1 (yes)

Problem: Record RRIRNRPPRLPRPRPRPNMAPRP ; criterion: shrunken log2 fold change no lower than -0.5. Met?
Solution: 1 (yes)
